test: Plasma protein binding in human at 5 uM measured after 4 hrs under shaking by LC-MS/MS analysis; format: ADME, cell-free; conditions: read-out: PPB (converted)

- smi: "COC1CCN(c2cc(C(=O)NS(=O)(=O)N(C)C)nc3c2c(C2CCC2)nn3-c2ccc(F)cc2)CC1"
  fraction unbound at 4 h, 5 µM: 0.02

---

experiment: Plasma protein binding in rat at 5 uM measured after 4 hrs under shaking by LC-MS/MS analysis; assay type: ADME, cell-free; settings: read-out: PPB (converted)

- smi: "COC1CCN(c2cc(C(=O)NS(=O)(=O)N(C)C)nc3c2c(C2CCC2)nn3-c2ccc(F)cc2)CC1"
  fraction unbound at 4 h, 5 µM: 0.016

Value source: ChEMBL document CHEMBL5335845
